TEST SYSTEM: UniProtKB A3RE51
METHOD NOTES: Coupled enzyme assay, WS substrate profile (TLC)
Assay type: biochemical, Marinobacter hydrocarbonoclasticus DSM 8798
Design: key: no activity (−); ranging from no activity (−) to most active (+++); ranging from no activity (−) to most active (+++); most active (+++)
EXPERIMENTAL SETUP: fatty alcohol C14; 12 h at 37° C.; each substrate 250 μM
REPORTED METRIC: WE formation (spot intensity of wax ester products on TLC), WS2, C14

Check out these entries, answers already filled in.
INSERT INTO assay_data (compound, result) VALUES
  ('CCCCCCCCCCCCCC(=O)O', '++'),
  ('CC(C)CCCC(C)CCCC(C)CCCC(C)CC(=O)O (stereo not drawn)', '−'),
  ('CCCCCCCCCCCCCCCC(=O)O', '++'),
  ('CC/C=C\C/C=C\C/C=C\CCCCCCCC(=O)O [C18Δcis9, 12, 15]', '+'),
  ('CCCCCCCCCCCCCCCCCC(=O)O', '+');

With those in mind, consider the next compound.
What value of WE formation (spot intensity of wax ester products on TLC), WS2, C14 has been reported for the following compound? CCCCCC/C=C\CCCCCCCC(=O)O [C16Δcis9]
+++

###

Tested on: WS1
METHOD NOTES: Coupled enzyme assay, WS substrate profile (TLC)
Assay type: biochemical, Marinobacter hydrocarbonoclasticus DSM 8798
Parameters: key: no activity (−); ranging from no activity (−) to most active (+++); ranging from no activity (−) to most active (+++); most active (+++)
EXPERIMENTAL SETUP: fatty alcohol C10; 12 h at 37° C.; each substrate 250 μM
REPORTED METRIC: WE formation (spot intensity of wax ester products on TLC), WS1, C10

# count of solved cases: 5
INSERT INTO results (molecule, result) VALUES
  ('CCCCCCCCCCCCCCCCCC(=O)O [C18]', '++'),
  ('CCCCCC/C=C\CCCCCCCC(=O)O [C16Δcis9]', '+'),
  ('CCCCCCCCCCCC(=O)O [C12]', '−'),
  ('CCCCCCCCCCCCCCCCCCCC(=O)O [C20]', '+'),
  ('CCCCCCCCCCCCCCCC(=O)O [C16, palmitic acid]', '+');

Can you share its WE formation (spot intensity of wax ester products on TLC), WS1, C10? I mean this molecule: CC/C=C\C/C=C\C/C=C\CCCCCCCC(=O)O [C18Δcis9, 12, 15]
−

Same again, this time with CC(C)CCCC(C)CCCC(C)CCCC(C)CC(=O)O (stereo not drawn) [Phytanic acid]
−

Try this molecule too: CCCCCCCCCC(=O)O [C10]
+

Here is the next molecule: CCCCCCCCCCCCCC(=O)O [C14]
−

###

TEST SYSTEM: WS2 (Marinobacter nauticus)
METHOD NOTES: Coupled enzyme assay, WS substrate profile (TLC)
Assay type: biochemical, Marinobacter hydrocarbonoclasticus DSM 8798
Parameters: key: no activity (−); ranging from no activity (−) to most active (+++); ranging from no activity (−) to most active (+++); most active (+++)
EXPERIMENTAL SETUP: alcohol farnesol; 12 h at 37° C.; each substrate 250 μM
REPORTED METRIC: WE formation (spot intensity of wax ester products on TLC), WS2, Farnesol

The cases that follow already have their WE formation (spot intensity of wax ester products on TLC), WS2, Farnesol on record.
INSERT INTO assay_data (molecule, result) VALUES
  ('CCCCCCCCCC(=O)O', '+'),
  ('CC/C=C\C/C=C\C/C=C\CCCCCCCC(=O)O [C18Δcis9, 12, 15]', '−'),
  ('CCCCCCCCCCCCCCCCCC(=O)O', '++'),
  ('CCCCCCCCCCCCCCCC(=O)O', '++');

Can you look up the measured WE formation (spot intensity of wax ester products on TLC), WS2, Farnesol of CCCCCCCCCCCCCC(=O)O for me?
++

Cool, now CCCCCCCCCCCC(=O)O
++

Next record, please: CCCCCCCCCCCCCCCCCCCC(=O)O
+

And the next one, CC(C)CCCC(C)CCCC(C)CCCC(C)CC(=O)O (stereo not drawn) ?
++

Lookup CCCCCC/C=C\CCCCCCCC(=O)O [C16Δcis9]
++

###

Test system: WS1
METHOD NOTES: Coupled enzyme assay, WS substrate profile (TLC)
Format: biochemical, Marinobacter hydrocarbonoclasticus DSM 8798
Parameters: key: no activity (−); ranging from no activity (−) to most active (+++); ranging from no activity (−) to most active (+++); most active (+++)
EXPERIMENTAL SETUP: fatty alcohol C14; 12 h at 37° C.; each substrate 250 μM
REPORTED METRIC: WE formation (spot intensity of wax ester products on TLC), WS1, C14

INSERT INTO assay_data (compound, result) VALUES
  ('CCCCCCCCCC(=O)O', '−'),
  ('CCCCCCCCCCCCCCCCCCCC(=O)O', '+'),
  ('CC/C=C\C/C=C\C/C=C\CCCCCCCC(=O)O [C18Δcis9, 12, 15]', '+'),
  ('CCCCCC/C=C\CCCCCCCC(=O)O [C16Δcis9]', '++'),
  ('CCCCCCCCCCCC(=O)O', '+');

Shift focus to the following entry.
I'd like to know its WE formation (spot intensity of wax ester products on TLC), WS1, C14. The compound in question is CC(C)CCCC(C)CCCC(C)CCCC(C)CC(=O)O (stereo not drawn)
−

###

TEST SYSTEM: UniProt A3RE51
METHOD NOTES: Coupled enzyme assay, WS substrate profile (TLC)
Type: biochemical, Marinobacter hydrocarbonoclasticus DSM 8798
Parameters: key: no activity (−); ranging from no activity (−) to most active (+++); ranging from no activity (−) to most active (+++); most active (+++)
EXPERIMENTAL SETUP: alcohol phytol; 12 h at 37° C.; each substrate 250 μM
REPORTED METRIC: WE formation (spot intensity of wax ester products on TLC), WS2, Phytol

Below, each entry is followed by its recorded WE formation (spot intensity of wax ester products on TLC), WS2, Phytol result.
INSERT INTO measurements (compound, result) VALUES
  ('CC(C)CCCC(C)CCCC(C)CCCC(C)CC(=O)O (stereo not drawn)', '++'),
  ('CCCCCCCCCCCC(=O)O', '+'),
  ('CCCCCCCCCCCCCCCC(=O)O', '+'),
  ('CCCCCCCCCCCCCCCCCCCC(=O)O', '+'),
  ('CCCCCCCCCC(=O)O', '+'),
  ('CC/C=C\C/C=C\C/C=C\CCCCCCCC(=O)O [C18Δcis9, 12, 15]', '+');

Query (compound): CCCCCCCCCCCCCC(=O)O ; field requested: WE formation (spot intensity of wax ester products on TLC), WS2, Phytol
+

How about CCCCCCCCCCCCCCCCCC(=O)O ?
+

Would you kindly repeat that for CCCCCC/C=C\CCCCCCCC(=O)O [C16Δcis9] ?
++

###

TEST SYSTEM: WS2 (Marinobacter nauticus, UniProt A3RE51)
Sequence (A3RE51 entry or part of it): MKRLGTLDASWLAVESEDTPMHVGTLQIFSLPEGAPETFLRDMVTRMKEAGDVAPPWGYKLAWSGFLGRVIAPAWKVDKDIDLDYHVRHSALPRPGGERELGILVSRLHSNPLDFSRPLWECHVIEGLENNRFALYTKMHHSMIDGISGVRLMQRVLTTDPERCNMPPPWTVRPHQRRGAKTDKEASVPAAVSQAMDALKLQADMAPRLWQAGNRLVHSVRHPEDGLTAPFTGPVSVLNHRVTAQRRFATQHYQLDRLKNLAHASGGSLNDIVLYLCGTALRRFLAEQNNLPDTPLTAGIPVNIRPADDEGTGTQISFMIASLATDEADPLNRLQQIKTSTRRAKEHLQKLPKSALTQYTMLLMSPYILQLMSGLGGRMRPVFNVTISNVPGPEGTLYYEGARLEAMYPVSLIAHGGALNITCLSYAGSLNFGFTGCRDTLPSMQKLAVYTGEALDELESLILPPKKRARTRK
METHOD NOTES: Coupled enzyme assay, WS substrate profile (TLC)
Format: biochemical, Marinobacter hydrocarbonoclasticus DSM 8798
Set-up: key: no activity (−); ranging from no activity (−) to most active (+++); ranging from no activity (−) to most active (+++); most active (+++)
EXPERIMENTAL SETUP: fatty alcohol C16; 12 h at 37° C.; each substrate 250 μM
REPORTED METRIC: WE formation (spot intensity of wax ester products on TLC), WS2, C16

Example entries begin here.
INSERT INTO results (compound, result) VALUES
  ('CCCCCCCCCCCCCCCCCCCC(=O)O [C20]', '+'),
  ('CCCCCCCCCCCCCCCCCC(=O)O [C18]', '+'),
  ('CCCCCCCCCCCCCC(=O)O [C14]', '+'),
  ('CCCCCC/C=C\CCCCCCCC(=O)O [C16Δcis9]', '+++'),
  ('CC(C)CCCC(C)CCCC(C)CCCC(C)CC(=O)O (stereo not drawn) [Phytanic acid]', '−');

What measured WE formation (spot intensity of wax ester products on TLC), WS2, C16 goes with CC/C=C\C/C=C\C/C=C\CCCCCCCC(=O)O [C18Δcis9, 12, 15] ?
+

Check CCCCCCCCCCCC(=O)O [C12] too.
+

Can you check CCCCCCCCCCCCCCCC(=O)O [C16, palmitic acid] next?
+++

Consider next the compound CCCCCCCCCC(=O)O [C10] in the same way.
+
